Biological target: IL-13 (human IL-13, preparation not specified) (human, UniProt P35225 35-146, limits assumed)
Sequence (P35225 35-146 limits assumed): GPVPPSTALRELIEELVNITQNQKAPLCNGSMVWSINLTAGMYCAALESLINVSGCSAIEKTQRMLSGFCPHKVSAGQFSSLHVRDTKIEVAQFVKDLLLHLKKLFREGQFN
Experiment: cell-based or functional assay
measure_name: IC50, Eotaxin-1 assay, n = 3 (nM)
The figure you give is taken to be in nM; do not add the unit.

binder	IC50, Eotaxin-1 assay, n = 3 [nM]
antibody 353 (antibody, V domains shown) VH: QVQLQESGPGLVKPSETLSLTCTVSGGSISTYYWSWIRQPPGKGLEWIGYIYYSGSTNYNPSLKSRVTISVDTSKNQFSLKLSSVTAADTAVYYCARDGGHYWDDAFDIWGQGTMVTVSS VL: DIQMTQSPSSLSASVGDRVTITCRASQGIRNDLDWYQQKPGKAPKRLIYDASSLQSGVPSRFSGSGSGTEFTLTISSLQPEDFATYYCLQHDSYPFTFGPGTKVDIK	0.08

For this binder ( antibody 693 (antibody, V domains shown, also called sc693) VH: QVQLQESGPGLVKPSETLSLTCSVSGGSISSYYWSWIRQPAGKGLEWIGRIYMTGRTNYNSSLKSRVTMSIDTSKNQLSLKLSFMTAADTAVYYCARESGSSYSYDYWGQGTLVTVSS VL: SYVLTQPPSVSVAPGQTARITCGGNNIGSKGVHWYQQKPGQAPVLVVYDDSDRPSGIPERFSGSNSGNTATLTISRVEAGDEADYYCQVWVSSSDHHVVFGGGTKLTVV ), measured IC50, Eotaxin-1 assay, n = 3 is 0.053

For this binder ( antibody 11.18.3 (antibody, V domains shown) VH: QVQLVESGGGVVQPGRSLRLSCVASGFTFSSYDMHWVRQAPGKGLEWVAVIWYDGSNKYYADSVQGRFTISRDNSKNTLYLQMNSLRAEDTAVYYCTSEDSSGWYDGWFDPWGQGTLVTVSS VL: DIQMTQSPSSLSASVGDRVTITCRASQGISNYLAWYQQKPGKVPKVLIYAASTLQSGVPSRFSGSGSGTDFTLTISSLQPEDVATYYCQKYNSAPFTFGPGTKVDIK ), measured IC50, Eotaxin-1 assay, n = 3 is 0.217
